Species: Rattus norvegicus
Experiment: DrugMatrix - Regimen: Daily Repeat
Assay type: toxicity, organism-based, Sprague-Dawley
Parameters: regimen Daily Repeat, gender Male, age 6-8 weeks
Conditions: in vivo, po, 1500 mg/kg, 120 h, tissue Blood, route oral GAVAGE, dose level High, time 5 day, vehicle .5 % CMC
property-name: LYMPHOCYTE

>  <molecule>
C[C@@H](O)[C@H]1C(=O)N2C(C(=O)O)=C(S[C@@H]3CN[C@H](C(=O)N(C)C)C3)[C@H](C)[C@H]12

>  <property-name>
LYMPHOCYTE

>  <endpoint-value>
88%

$$$$
>  <molecule>
O=c1cc(-c2ccccc2)oc2ccc3ccccc3c12

>  <property-name>
LYMPHOCYTE

>  <endpoint-value>
85.5%

$$$$
>  <molecule>
CCOC(=O)[C@H](CCc1ccccc1)N[C@@H](C)C(=O)N1CCC[C@H]1C(=O)O

>  <property-name>
LYMPHOCYTE

>  <endpoint-value>
92.33%

$$$$
>  <molecule>
Nc1nc2c(c(=O)[nH]1)N(C=O)C(CNc1ccc(C(=O)N[C@@H](CCC(=O)O)C(=O)O)cc1)CN2 (stereo not given in full)

>  <property-name>
LYMPHOCYTE

>  <endpoint-value>
92.33%

$$$$
>  <molecule>
CC(C)(Sc1cc(C(C)(C)C)c(O)c(C(C)(C)C)c1)Sc1cc(C(C)(C)C)c(O)c(C(C)(C)C)c1

>  <property-name>
LYMPHOCYTE

>  <endpoint-value>
90.67%

$$$$

Taken from ChEMBL document CHEMBL3885881.
